Source: PubChem BioAssay (NCI)

- Test system: OVCAR-5 ovarian
- protocol summary: NCI tumour cell line growth inhibition, 48 h
measurement label: TGI

* O=[N+]([O-])c1ccc2[nH]cc(-c3c4ccsc4cc4[nH]c5ccc([N+](=O)[O-])cc5c34)c2c1 | 7.8 µM
* CN(C(=O)c1ccc(Cl)s1)C(=S)N(C)C(=O)c1ccc(Cl)s1 | > 10 µM
* O=[N+]([O-])c1c(/C=N/Nc2ccccc2)oc(-c2ccc3c(c2)OCO3)c1-c1ccc2c(c1)OCO2 | > 100 µM
* O=C(Nc1cccc(-c2cn3ccccc3n2)c1)c1ccncc1 | > 100 µM
* COc1cccc(-c2nc3sccn3c2-c2ccnc(NCCNC(=O)Nc3cccc(C(F)(F)F)c3)n2)c1 | 52.2 µM

* * *

- Test system: SW-620 colon
- protocol summary: NCI tumour cell line growth inhibition, 48 h
measurement label: TGI

- O=C(Nc1cccc(-c2cn3ccccc3n2)c1)c1ccncc1: > 100 µM
- CC(=O)O[C@H]1C(N(C)C(=O)c2ccccc2)CC[C@]2(C)C3CC[C@@]4(C)C(CC(O)[C@@H]4C(C)N(C)C)[C@@H]3CCC12 (stereo partly specified): > 100 µM
- COc1cc2ccnc3c2c(c1O)N(C)C=C3: > 100 µM
- NC(=O)c1c[se]c(C2OC(CO)C(O)C2O)n1 (stereo unspecified): > 100 µM
- Oc1ccc(N=Nc2ccc(Cl)cc2)cc1: > 100 µM
- O=c1cc(-c2ccccc2)[nH]c2cc(Cl)cc(Cl)c12: > 100 µM

* * *

- Tested on: HCT-116 colon
- protocol summary: NCI tumour cell line growth inhibition, 48 h
TGI reference
measurement label: TGI (µM)

* COc1cc(OC)c(/C=C/c2ccc3ccccc3[n+]2C)c(OC)c1 | 11.7
* COc1cccc(-c2nc3sccn3c2-c2ccnc(NCCNC(=O)Nc3cccc(C(F)(F)F)c3)n2)c1 | 11.6
* COC(=O)C(COC(=O)/C=C/c1ccc(OC(C)=O)c(OC(C)=O)c1)OC(=O)/C=C/c1ccc(OC(C)=O)c(OC(C)=O)c1 (centres undefined) | 16.3
* Cc1[nH]c(-c2ccccc2)c(-c2ccc(Cl)cc2)c1C(=O)ONC(=O)c1ccccc1 | 5.24
* CN(C)CCNc1nc2ccccc2c2c1c1c(n2Cc2ccccc2)-c2ccccc2C1=O | 25.2
* O=C1C=C(c2c(O)ccc3ccccc23)c2ccccc2C1=O | 8.06

* * *

- Tested on: RXF 393 renal
- protocol summary: NCI tumour cell line growth inhibition, 48 h
measurement label: TGI (µM)

• CC(C)c1ccc(Cc2cnc(NC(=O)c3cc(Br)cs3)s2)cc1 = 5.97
• COC(=O)C(COC(=O)/C=C/c1ccc(OC(C)=O)c(OC(C)=O)c1)OC(=O)/C=C/c1ccc(OC(C)=O)c(OC(C)=O)c1 (stereo not given) = 25.8
• CCCCCCCCCCCCCCCCNc1nc(=O)n(C2CC(O)C(CO)O2)cc1F (stereo not given) = 28.4
• Oc1ccc(N=Nc2ccc(Cl)cc2)cc1 = 30.3
• CC(=O)Oc1cc(C)ccc1[C@]1(C)CC[C@H](C)/C1=C\Br = 15.9
• C[CH2][Sn]1([CH2]C)[O]C(=O)[O][Sn]([CH2]C)([CH2]C)[O]1 = 30.3

* * *

- Tested on: BT-549 breast
- protocol summary: NCI tumour cell line growth inhibition, 48 h
TGI reference
measurement label: TGI

• CCCCCCCCCCCCCCCCCCOCC(O)COP(=O)(O)OCC1OC(n2cc(F)c(=O)[nH]c2=O)CC1O (configuration not stated) = 27.3 µM
• CC(=O)NC1=N/C(=C/c2cc([N+](=O)[O-])ccc2O)CN1C = > 100 µM
• COc1ccc2c(c1)CCc1c-2n(CCN(C)C)c2ccc(OC)cc12 = > 100 µM
• CC(=O)CC1CCC(=O)CCC(=O)OC(CC(C)=O)CCC(=O)CCC(=O)O1 (configuration not stated) = > 100 µM
• O=C(N=Nc1ccccc1Br)NNc1ccccc1Br = > 100 µM
• C/C=C/[C@H]1O[C@@](OC)([C@@H](C)[C@H](O)[C@H](C)[C@H]2OC(=O)/C(OC)=C/C(C)=C/[C@@H](C)[C@@H](O)[C@@H](C)[C@@H](O)[C@H](C)C/C(C)=C/C=C/[C@@H]2OC)CC(OC2CC(O)C(OC(N)=O)C(C)O2)[C@@H]1C (some centres not stated) = 17.6 µM
• COc1cc([C@H](C)c2ccc3ccccc3c2)cc(OC)c1OC = 18.4 µM
• NC(=O)c1c[se]c(C2OC(CO)C(O)C2O)n1 (configuration not stated) = > 100 µM
• COC(=O)C1(C(=O)OC)N=C(C)OC1C(C)C (configuration not stated) = > 100 µM
• COC(=O)CCC/C=C\C[C@H]1C=CC(=O)/C1=C/C[C@@H](O)CCc1cccc(C(F)(F)F)c1 = 9.25 µM
• COC(OC)C(O)C1OC=CC1n1cnc2c(N)ncnc21 (configuration not stated) = > 100 µM
• CCOC(=O)C(O)(NC(C)=O)C(F)(F)F (configuration not stated) = > 100 µM

* * *

- System: LOX IMVI melanoma
- protocol summary: NCI tumour cell line growth inhibition, 48 h
measurement label: GI50

- CCCCCCC/C=C/[C@H]1O[C@]23C(=O)C[C@@]4(C[C@@H](OC5OC(CO)C(O)C(O)C5O)C[C@@H]4[C@H]2C=C1C)OC3=O (stereo not given in full): 2400 nM
- O=C(Oc1ccc(O)c2c(=O)n3c(cc12)[nH]c1ccccc13)c1ccccc1: 4770 nM
- Cc1cc(/C=C2\SC(=Nc3ccccc3)N(C3CCCC3)C2=O)c(C)n1-c1ccc(Cl)cc1: > 100000 nM
- COC(=O)CCC/C=C\C[C@H]1C=CC(=O)/C1=C/C[C@@H](O)CCc1cccc(C(F)(F)F)c1: 955 nM
- COc1cc(OC2OC(C)C(O)C(O)C2O)cc2oc(-c3ccc(O)cc3)c(CC=C(C)C)c(=O)c12 (stereo not given): 10400 nM
- CCCCNc1nc(NC(C)(C)C)nc(NC(C)(C)C)n1: 3390 nM
- CC1=CC[C@@H]2CC[C@]3(C)[C@H](CC[C@@H]4[C@@]5(C)CCCNC(C)(C)[C@@H]5CC[C@]43C)[C@H]2[C@@H]1C: 1660 nM
- O=C(Nc1ccc(Cl)cc1)Nc1ccc(Cl)c(Cl)c1: 3390 nM
- O=[N+]([O-])c1ccc2[nH]cc(-c3c4ccsc4cc4[nH]c5ccc([N+](=O)[O-])cc5c34)c2c1: 834 nM
- COc1cc([C@H](C)c2ccc3ccccc3c2)cc(OC)c1OC: 1030 nM

* * *

- System: KM12 colon
- protocol summary: NCI tumour cell line growth inhibition, 48 h
TGI reference
measurement label: TGI

- CC#CC(O)(C(=O)OC1CCCN(C)C1)C1=CC=CCC1 (stereo not drawn): > 100 µM
- C=CC(=O)N1CCCC(n2nc(-c3ccc(Oc4ccccc4)cc3)c3c(N)ncnc32)C1 (stereo not drawn): 22 µM
- COc1ccc(NC2Oc3cc4c(cc3C(c3cc(OC)c(O)c(OC)c3)C2C)OCO4)cc1 (stereo not drawn): > 100 µM

* * *

- Tested on: NCI-H460 lung
Outcome codes: t (active), f (inactive)

* Cc1ccc(C(=O)c2oc3ccc4c(C)cc(=O)oc4c3c2C)cc1 | f
* CC(C)c1ccc(Cc2cnc(NC(=O)c3cc(Br)cs3)s2)cc1 | f
* Nc1c(C(=O)c2ccccc2)sc2nc(-c3cccs3)ccc12 | t
* CN1CCN(Cc2ccc(NC(=O)c3cncc(C#Cc4cnc(N)c5ccc(F)cc45)c3)cc2C(F)(F)F)CC1 | f
* COc1ccc2c(c1)sc1nc(-c3ccccc3)c(-c3ccsc3)n12 | f

* * *

- Test system: M14 melanoma
- protocol summary: NCI tumour cell line growth inhibition, 48 h
GI50 reference
measurement label: GI50

* COc1ccc(/C=C/c2cc(OC)c(OC)c(OC)c2)cc1NC(=O)/C=C/c1ccc(F)cc1 | 2.81 µM
* CN(C)CCNc1nc2ccccc2c2c1c1c(n2Cc2ccccc2)-c2ccccc2C1=O | 18.6 µM
* Clc1nc(Oc2ccccc2)nc(-c2cn(-c3ccccc3)c3ccccc23)n1 | 5.32 µM
* CCCCCCC/C=C/[C@H]1O[C@]23C(=O)C[C@@]4(C[C@@H](OC5OC(CO)C(O)C(O)C5O)C[C@@H]4[C@H]2C=C1C)OC3=O (stereo partly drawn) | 3.58 µM
* C[CH2][Sn]1([CH2]C)[O]C(=O)[O][Sn]([CH2]C)([CH2]C)[O]1 | 18.8 µM
* COc1cc2nc(-c3ccc(C(F)(F)F)cc3)cc(OCCCN3CCOCC3)c2cc1OC | 0.355 µM
* COc1cc2c(cc1OCc1ccccc1)N=C[C@@H]1C/C(=C/C(=O)NCCCN3C(=O)c4cccc5cccc(c45)C3=O)CN1C2=O | 2.17 µM
* CC1=CC[C@@H]2CC[C@]3(C)[C@H](CC[C@@H]4[C@@]5(C)CCCNC(C)(C)[C@@H]5CC[C@]43C)[C@H]2[C@@H]1C | 1.73 µM
